Numbers sourced from ChEMBL document CHEMBL5126601.

# Kd measurements, system: Adenosine receptor A2a (Homo sapiens)
# Sequence (P29274 whole entry): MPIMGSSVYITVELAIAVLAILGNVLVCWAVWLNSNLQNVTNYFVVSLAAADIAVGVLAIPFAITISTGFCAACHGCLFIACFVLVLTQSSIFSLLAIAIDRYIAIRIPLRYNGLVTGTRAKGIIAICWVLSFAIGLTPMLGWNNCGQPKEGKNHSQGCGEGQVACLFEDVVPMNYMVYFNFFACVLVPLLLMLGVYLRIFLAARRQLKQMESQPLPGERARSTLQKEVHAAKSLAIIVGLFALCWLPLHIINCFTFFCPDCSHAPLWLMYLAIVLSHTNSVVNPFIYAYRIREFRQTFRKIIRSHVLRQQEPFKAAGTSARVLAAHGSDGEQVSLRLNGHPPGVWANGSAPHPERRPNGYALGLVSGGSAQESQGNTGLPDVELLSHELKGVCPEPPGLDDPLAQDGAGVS
Kindly provide the numeric value in µM only, without the unit symbol.

Past entries and their recorded results:
{"Line Notation": "Nc1nc(N)c2nccnc2n1", "Units Of Measure": "µM", "Kd": 9.6}
{"Line Notation": "Nc1nncc(-c2ccc(Br)cc2)n1", "Units Of Measure": "µM", "Kd": 50}
{"Line Notation": "CC(C)NC(=O)c1cc(-c2ccccc2)[nH]n1", "Units Of Measure": "µM", "Kd": 49}

Okay, now this compound:
Input line: Which measured Kd value corresponds to Cc1nn(-c2ccccc2)nc1C(N)=O ?
Output line: 410
